tested on: HepG2; assay: drug sensitivity score (DSS) for viability; higher = more toxic; extreme values may be limits of the assay; details: 72 h
Recorded drug sensitivity score for the following compounds
QUANTITY_KIND: drug sensitivity score

INSERT INTO assay_data (compound, quantity_kind, data_value) VALUES
  ('COc1cc(C(=O)OCCCN2CCCN(CCCOC(=O)c3cc(OC)c(OC)c(OC)c3)CC2)cc(OC)c1OC', 'drug sensitivity score', 3.3),
  ('COc1cc2c(cc1C(F)(F)F)N(C(=O)Nc1cc(F)cc(-c3cccnc3)c1)CC2', 'drug sensitivity score', 0),
  ('O=C(c1ccc(Nc2nccc(-c3cc4ccccc4s3)n2)cc1)N1CCC(N2CCCC2)CC1', 'drug sensitivity score', 7.7),
  ('COc1ccc2c(c1OC)C(=O)O[C@@H]2[C@H]1c2c(cc3c(c2OC)OCO3)CCN1C', 'drug sensitivity score', 0),
  ('CCC[C@H](N[C@@H](C)C(=O)N1[C@H](C(=O)O)C[C@@H]2CCCC[C@@H]21)C(=O)O', 'drug sensitivity score', 0),
  ('Cc1cc(C)c(NC(=O)C2CC3CCC2C3)c(C)c1 (stereo unspecified)', 'drug sensitivity score', 0),
  ('Cc1cc(C)c(S(=O)(=O)Nc2ccccc2C(F)(F)F)c(C)c1', 'drug sensitivity score', 0),
  ('Cc1sc2c(c1C)C(c1ccc(Cl)cc1)=N[C@@H](CC(N)=O)c1nnc(C)n1-2', 'drug sensitivity score', 13.2),
  ('Cc1cn([C@H]2C=C[C@@H](CO)O2)c(=O)[nH]c1=O', 'drug sensitivity score', 0),
  ('CCCCc1nc2cc(/C=C/C(=O)NO)ccc2n1CCN(CC)CC', 'drug sensitivity score', 16.8),
  ('c1cc2c(cc1C1CCCCC1)c1c3n2CCNC3CCC1 (stereo unspecified)', 'drug sensitivity score', 8.3),
  ('NCCC(Oc1ccc(C(F)(F)F)cc1)c1ccccc1 (stereo unspecified)', 'drug sensitivity score', 4.7),
  ('Cc1ccc(C(=O)C(C)CN2CCCCC2)cc1 (stereo unspecified)', 'drug sensitivity score', 0.1),
  ('COC(=O)CN1CN(c2ccccc2)C2(CCN(Cc3cccc4ccccc34)CC2)C1=O', 'drug sensitivity score', 0),
  ('O=C1c2cccc(O)c2C(=O)c2c(O)cccc21', 'drug sensitivity score', 0),
  ('N=C1CCCN1Cc1[nH]c(=O)[nH]c(=O)c1Cl', 'drug sensitivity score', 0),
  ('C#Cc1cccc(Nc2ncnc3cc4c(cc23)OCCOCCOCCO4)c1', 'drug sensitivity score', 0),
  ('CCNCCCNCCCCNCCCNCC', 'drug sensitivity score', 4.7),
  ('CC(C)[C@H](CO)Nc1nc(Nc2ccc(C(=O)O)c(Cl)c2)c2ncn(C(C)C)c2n1', 'drug sensitivity score', 0),
  ('O=C(c1c2ccccc2cc2ccccc12)N1CCC(N2CCC[C@@H](C(=O)N3CCOCC3)C2)CC1', 'drug sensitivity score', 1.1),
  ('Nc1ncnc2c1c(-c1cccc(OCc3ccccc3)c1)cn2C1CC(CN2CCCC2)C1 (stereo in doubt)', 'drug sensitivity score', 8.3),
  ('CC1CCN(C(c2ccc(F)cc2)c2ccc(C(C)C(=O)O)cc2-c2ccc(C(F)(F)F)cc2)CC1 (stereo unspecified)', 'drug sensitivity score', 0.4),
  ('COC(=O)N1CC[C@@H]2[C@H]1CCC[C@@]2(O)C#Cc1cccc(C)c1', 'drug sensitivity score', 0),
  ('O=C(NO)c1cnc(N2CCN(S(=O)(=O)c3ccc4ccccc4c3)CC2)nc1', 'drug sensitivity score', 8.9),
  ('O=C(O)[C@H](Cc1ccccc1)NCc1ccc(Cl)cc1', 'drug sensitivity score', 0),
  ('COC(=O)C1=C(C)NC(C)=C(C(=O)O[C@H]2CCN(Cc3ccccc3)C2)[C@H]1c1cccc([N+](=O)[O-])c1', 'drug sensitivity score', 1.4),
  ('O=C(O)c1ccc2c(c1)C(=O)N(c1cccc(Oc3ccc([N+](=O)[O-])cc3)c1)C2=O', 'drug sensitivity score', 0),
  ('O=C(Nc1cccc(Nc2ncc(Br)c(NCCc3cnc[nH]3)n2)c1)N1CCCC1', 'drug sensitivity score', 4.7),
  ('CC(C)(C)[C@]1(O)CCN2C[C@H]3c4ccccc4CCc4cccc(c43)[C@@H]2C1', 'drug sensitivity score', 0),
  ('COc1ccc2c(c1)C(=O)N(CCc1ccc(S(=O)(=O)NC(=O)NC3CCCCC3)cc1)C(=O)C2(C)C', 'drug sensitivity score', 0),
  ('Cc1noc2c1-c1ccccc1C(c1ccc(Cl)cc1)=N[C@H]2CC(N)=O', 'drug sensitivity score', 5.9),
  ('CC[N+](CC)(CCNC(=O)C(=O)NCC[N+](CC)(CC)Cc1ccccc1Cl)Cc1ccccc1Cl', 'drug sensitivity score', 0),
  ('CCOCc1nc2c(N)nc3ccccc3c2n1CC(C)(C)O', 'drug sensitivity score', 0),
  ('O=C(O)[C@@H]1C[C@@H](O)CN1 [L-hydroxyproline]', 'drug sensitivity score', 0),
  ('C#C[C@]1(O)CC[C@H]2[C@@H]3CCC4=CC(=O)CC[C@@H]4[C@H]3C(=C)C[C@@]21CC', 'drug sensitivity score', 0),
  ('Cc1nc2ccc(Oc3ccc(F)cc3)cc2c(=O)n1C[C@H]1CCCN(C(C)C)C1', 'drug sensitivity score', 0);
